All values here come from PubChem BioAssay.

- targetDesc: Follistatin-related protein 3 (Homo sapiens) (UniProt O95633)
- Sequence (O95633 whole entry, looked up): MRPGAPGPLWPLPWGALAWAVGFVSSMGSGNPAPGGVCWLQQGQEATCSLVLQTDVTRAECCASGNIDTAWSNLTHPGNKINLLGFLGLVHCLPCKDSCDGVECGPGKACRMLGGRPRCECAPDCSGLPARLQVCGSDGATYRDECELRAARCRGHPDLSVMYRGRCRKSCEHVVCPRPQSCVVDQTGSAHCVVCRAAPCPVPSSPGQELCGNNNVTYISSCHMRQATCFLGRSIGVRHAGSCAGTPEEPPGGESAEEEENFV
- protocolSummary: FSTL3 binders on small-molecule microarrays, primary screen, biochemical, small-molecule microarray, 635 nm fluorescence (AID 1105);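 also: score merges emission near 667 nm and signal to noise per printed spot across three slides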
- runConditions: FSTL3 binding, higher = more signal
Label YES when composite z-score is at or above 1; anything below gets NO.

Example entries begin here.
molecule="[N-]=[N+]=Nc1ccccc1[C@H]1OC(c2ccc(OCCCO)cc2)=N[C@@]1(CCS(=O)(=O)c1ccccc1)C(=O)NCC(O)CO (stereo partly specified)" classname=NO
molecule=CCCC=C(CCC)[C@@H](NC(=O)c1cccs1)c1ccc(C(F)(F)F)cc1 classname=NO
molecule=COCCOC(=O)N1C(=O)[C@@]2(c3cc(C#CCC(C(=O)OC)C(=O)OC)ccc31)[C@H](c1ccccc1OCCO)N1[C@H](c3ccccc3)[C@H](c3ccccc3)OC(=O)[C@H]1[C@@H]2C(=O)N1CCN(c2ncccn2)CC1 classname=YES
molecule=CCOC(=O)C[C@H]1[C@H](OC(=O)c2ccc(C(=O)c3ccccc3)cc2)[C@@H](NC(=O)CC(C)C)c2cc(OCCCO)ccc2N1C(=O)c1ccc2ccccc2n1 classname=YES
molecule="CCN(CC)c1ccc(N2CC=CC34O[C@@H]5C=CCCOC(=O)C5[C@H]3C(=O)N(CCCCCCO)[C@@H]4C2=O)cc1 (stereo partly specified)" classname=NO

Query molecule follows.
Q. Exam item: decide whether the reported composite z-score for C=CCOC(=O)[C@H]1[C@@H]2C(=O)O[C@@H](c3ccccc3)[C@@H](c3ccccc3)N2[C@@H](c2ccc(OCCOC(=O)[C@@H]3C[C@@H]4C(=O)N[C@@H](CC(C)C)C(=O)N4[C@@H]3c3ccc(O)cc3)cc2)[C@]12C(=O)Nc1ccccc12 is at least 1.
A. YES
